Assay type: in vivo, human
Condition Parameters: human, plasma, oral, 1 mg, t max, 1 mg luseogliflozin OD, Day 1, plasma
Value Type: Tmax (min)

>>> numeric_result("CCOc1ccc(Cc2cc([C@@H]3S[C@H](CO)[C@@H](O)[C@H](O)[C@H]3O)c(OC)cc2C)cc1")
41.3

---

Format: in vivo, human
Condition Parameters: human, plasma, oral, 0.5 mg, t 1/2, 0.5 mg luseogliflozin OD, Day 1, plasma
Value Type: half-life (h)

>>> numeric_result("CCOc1ccc(Cc2cc([C@@H]3S[C@H](CO)[C@@H](O)[C@H](O)[C@H]3O)c(OC)cc2C)cc1")
9.86

---

Assay type: in vivo, human
Condition Parameters: human, plasma, oral, 5 mg, t max, 5 mg luseogliflozin OD, Day 7, plasma
Value Type: Tmax (min)

>>> numeric_result("CCOc1ccc(Cc2cc([C@@H]3S[C@H](CO)[C@@H](O)[C@H](O)[C@H]3O)c(OC)cc2C)cc1")
41.3

---

Type: in vivo, human
Condition Parameters: human, plasma, oral, mean t 1/2, all four doses (0.5-5 mg)
Value Type: half-life

>>> result("CCOc1ccc(Cc2cc([C@@H]3S[C@H](CO)[C@@H](O)[C@H](O)[C@H]3O)c(OC)cc2C)cc1")
"~10 h"

---

Format: in vivo, human
Condition Parameters: human, plasma, oral, 5 mg, t max, 5 mg luseogliflozin OD, Day 1, plasma
Value Type: Tmax (min)

>>> numeric_result("CCOc1ccc(Cc2cc([C@@H]3S[C@H](CO)[C@@H](O)[C@H](O)[C@H]3O)c(OC)cc2C)cc1")
37.5

---

Type: in vivo, human
Condition Parameters: human, plasma, oral, 5 mg
Value Type: AUC(0-inf) (ng·h/mL)

>>> numeric_result("CCOc1ccc(Cc2cc([C@@H]3S[C@H](CO)[C@@H](O)[C@H](O)[C@H]3O)c(OC)cc2C)cc1")
1690

---

Format: in vivo, human
Condition Parameters: human, plasma, oral, 5 mg
Value Type: AUC (ng·h/mL)

>>> numeric_result("CCOc1ccc(Cc2cc([C@@H]3S[C@H](CO)[C@@H](O)[C@H](O)[C@H]3O)c(OC)cc2C)cc1 [Luseogliflozin]")
1880

---

Assay type: in vivo, human
Condition Parameters: human, plasma, oral, 1 mg, t 1/2, 1 mg luseogliflozin OD, Day 7, plasma
Value Type: half-life (h)

>>> numeric_result("CCOc1ccc(Cc2cc([C@@H]3S[C@H](CO)[C@@H](O)[C@H](O)[C@H]3O)c(OC)cc2C)cc1")
10

---

Assay type: in vivo, human
Condition Parameters: human, plasma, oral, 2.5 mg, t max, 2.5 mg luseogliflozin OD, Day 7, plasma
Value Type: Tmax (h)

>>> numeric_result("CCOc1ccc(Cc2cc([C@@H]3S[C@H](CO)[C@@H](O)[C@H](O)[C@H]3O)c(OC)cc2C)cc1 [Luseogliflozin]")
1

---

Type: in vivo, human
Condition Parameters: human, plasma, oral, 0.5 mg, t max, 0.5 mg luseogliflozin OD, Day 1, plasma
Value Type: Tmax (min)

>>> numeric_result("CCOc1ccc(Cc2cc([C@@H]3S[C@H](CO)[C@@H](O)[C@H](O)[C@H]3O)c(OC)cc2C)cc1")
51.4

---

Format: in vivo, human
Condition Parameters: human, plasma, oral, 5 mg, t 1/2, 5 mg luseogliflozin OD, Day 1, plasma
Value Type: half-life (h)

>>> numeric_result("CCOc1ccc(Cc2cc([C@@H]3S[C@H](CO)[C@@H](O)[C@H](O)[C@H]3O)c(OC)cc2C)cc1")
8.96

---

Type: in vivo, human
Condition Parameters: human, plasma, oral, 5 mg, C max, 5 mg luseogliflozin OD, Day 1, plasma
Value Type: Cmax (ng/mL)

>>> numeric_result("CCOc1ccc(Cc2cc([C@@H]3S[C@H](CO)[C@@H](O)[C@H](O)[C@H]3O)c(OC)cc2C)cc1")
243

---

Type: in vivo, human
Condition Parameters: human, plasma, oral, 0.5 mg, t 1/2, 0.5 mg luseogliflozin OD, Day 7, plasma
Value Type: half-life (h)

>>> numeric_result("CCOc1ccc(Cc2cc([C@@H]3S[C@H](CO)[C@@H](O)[C@H](O)[C@H]3O)c(OC)cc2C)cc1")
10.5

---

Type: in vivo, human
Condition Parameters: human, plasma, oral, 2.5 mg
Value Type: AUC (ng·h/mL)

>>> numeric_result("CCOc1ccc(Cc2cc([C@@H]3S[C@H](CO)[C@@H](O)[C@H](O)[C@H]3O)c(OC)cc2C)cc1 [Luseogliflozin]")
899

All figures here come from paper PMC4415995.
